ASSAY SUMMARY: GPCRScan assay: inhibition of GABA/PBR
Set-up: species or system Rattus norvegicus; radioligand conc. used [nm] 0.3 – 2.0, parental cells brain tissue
Listed next: entries and their corresponding Ki.
Give the quantity in nM, number only.

SMILES | PROPERTY MEASURED | VALUE OBSERVED
COc1ccc2c(c1)O[C@H](c1ccc(OC)c(OC)c1)C[C@@H]2NC(=O)C1(c2ccc3c(c2)OC(F)(F)O3)CC1 | Ki | 218

Turning to the following molecule.
Ask | Request the reported Ki associated with `COc1ccc2c(c1)O[C@@H](c1ccc(OC)c(OC)c1)C[C@H]2NC(=O)C1(c2ccc3c(c2)OC(F)(F)O3)CC1`
Reply | 19.6

====

TARGET UNDER TEST: voltage-gated Na+ channel (site 2) (Rattus norvegicus, UniProt F1LQQ7+O08562+O88420+O88457+P04774+P04775+P08104+P15389+P15390+Q62968)
ASSAY SUMMARY: Na+ channel (site 2) Eurofins-Cerep binding assay
Format: protein assay
Parameters: incubation time 60 min, incubation temperature 37°C, ligand concentration 10 nM
SETTINGS: rat cerebral cortex, probe [3H]batrachotoxin (10 nM), compound concentration 10 uM, read-out: % Inhibition of Control Specific Binding (Mean n=2)
Listed next: entries and their corresponding inhibition at 60 min, 10 µM.
Give the quantity in %, number only.

SMILES | VALUE OBSERVED
COc1ccc2c(c1)O[C@@H](c1ccc(OC)c(OC)c1)C[C@H]2NC(=O)C1(c2ccc3c(c2)OC(F)(F)O3)CC1 | 35

Ask | Request the reported inhibition at 60 min, 10 µM associated with `COc1ccc2c(c1)O[C@H](c1ccc(OC)c(OC)c1)C[C@@H]2NC(=O)C1(c2ccc3c(c2)OC(F)(F)O3)CC1`
Reply | 47.3

====

TARGET UNDER TEST: Sigma intracellular receptor 2 (Homo sapiens, UniProt Q5BJF2)
Sequence (Q5BJF2 whole entry): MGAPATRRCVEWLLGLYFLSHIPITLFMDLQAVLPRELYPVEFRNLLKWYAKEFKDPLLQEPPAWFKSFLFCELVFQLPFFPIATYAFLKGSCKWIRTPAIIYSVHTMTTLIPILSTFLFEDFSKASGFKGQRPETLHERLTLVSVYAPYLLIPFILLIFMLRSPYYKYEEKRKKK
ASSAY SUMMARY: GPCRScan assay: inhibition of Sigma 2
PROPERTY MEASURED: Ki (nM)
Give the quantity in nM, number only.

MOLECULE | TARGET UNDER TEST | PROPERTY MEASURED | UNIT LABEL | VALUE OBSERVED
COc1ccc2c(c1)O[C@@H](c1ccc(OC)c(OC)c1)C[C@H]2NC(=O)C1(c2ccc3c(c2)OC(F)(F)O3)CC1 [A-1596586] | Sigma intracellular receptor 2 (Homo sapiens, UniProt Q5BJF2) | Ki | nM | 1190

Ask | Request the reported Ki associated with COc1ccc2c(c1)O[C@H](c1ccc(OC)c(OC)c1)C[C@@H]2NC(=O)C1(c2ccc3c(c2)OC(F)(F)O3)CC1 [A-1596584]
Reply | 584
